Origin of values: the supplement of paper PMC11451515

Would you kindly list cell viability for each of these compounds?
System: NOMO1
Test: cell viability relative to DMSO control; higher = less cytotoxic
Settings: RPMI 5 mM glucose + 10% dialyzed FBS; 48 h; 0.000781 µM
# unit: % | format: bare number

INPUT: For "COc1cc(N2CCC(C(N)=O)CC2)ccc1Nc1nc(N)c(Cl)c(Nc2ccccc2[S+](=O)([O-])C(C)C)n1" , what is its reported cell viability?
OUTPUT: 83.9

INPUT: Which cell viability is listed for "CCC1=C[C@@H]2CN(C1)Cc1c([nH]c3ccccc13)[C@@](C(=O)OC)(c1cc3c(cc1OC)N(C)[C@H]1[C@@](O)(C(=O)OC)[C@H](OC(C)=O)[C@]4(CC)C=CCN5CC[C@]31[C@@H]54)C2" ?
OUTPUT: 120

INPUT: Fill in: cell viability of Cc1ccc(C(C)(O)c2nc3ccccc3s2)c(C)c1 (stereo not drawn) is ___
OUTPUT: 107

INPUT: Quick one: cell viability for "NC(=O)c1ccc(-c2nc(-c3ccc4c(c3)OCCO4)c(-c3ccccn3)[nH]2)cc1" ?
OUTPUT: 121

INPUT: Fill in the blank: the reported cell viability of "Cc1c[nH]c(/C=C2\C(=O)Nc3ccccc32)c1CCC(=O)O" is ____.
OUTPUT: 123

INPUT: Item under review: "C[N]1C=NC=C1[C@@](N)(C2=CC=C(Cl)C=C2)C3=CC=C4N(C)C(=O)\C=C(\C5=CC=CC(=C5)Cl)C4=C3" . Reported cell viability?
OUTPUT: 112

INPUT: GET /values?readout=cell viability&item= "COc1cc2nccc(Oc3ccc(NC(=O)Nc4cc(C)on4)c(Cl)c3)c2cc1OC"
OUTPUT: 124

INPUT: Need cell viability of "OC[C@H]1O[C@@H](Oc2ccc(O)cc2)[C@H](O)[C@@H](O)[C@@H]1O" , thanks.
OUTPUT: 65.2
